Assign ΔG to each entry below.
target: LecA (Pseudomonas aeruginosa, UniProt Q05097); construct: made in house; test: Isothermal titration microcalorimetry (ITC) with LecA; assay type: binding; conditions: ITC average, 25 °C, TBS/Ca2+ buffer (5% DMSO for I2 and J2), N=3
Sequence (Q05097 whole entry): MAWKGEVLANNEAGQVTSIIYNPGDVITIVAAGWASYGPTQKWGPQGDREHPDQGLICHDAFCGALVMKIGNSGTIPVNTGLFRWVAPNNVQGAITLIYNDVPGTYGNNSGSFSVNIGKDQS
Dear colleague, please return just the value in kcal/mol, with no unit written.

Which measured ΔG value corresponds to O=C(CCc1ccc(O[C@@H]2O[C@H](CO)[C@H](O)[C@H](O)[C@H]2O)cc1)Nc1ccc(OCCCOc2ccc(NC(=O)CCc3ccc(O[C@@H]4O[C@H](CO)[C@H](O)[C@H](O)[C@H]4O)cc3)cn2)nc1 [Compound I2] ?
-10.2

Would you kindly share the measured ΔG for O=C(CCc1ccc(O[C@@H]2O[C@H](CO)[C@H](O)[C@H](O)[C@H]2O)cc1)Nc1ccc(OCCCCOc2ccc(NC(=O)CCc3ccc(O[C@@H]4O[C@H](CO)[C@H](O)[C@H](O)[C@H]4O)cc3)cn2)nc1 [Compound J2] ?
-9.7

If you can, please state the reported ΔG value of Cc1ccc(NC(=O)CCc2ccc(O[C@@H]3O[C@H](CO)[C@H](O)[C@H](O)[C@H]3O)cc2)cc1S(=O)(=O)O [Compound K2] .
-7.1

# get_value(readout='ΔG', item= O=C(CCc1ccc(O[C@@H]2O[C@H](CO)[C@H](O)[C@H](O)[C@H]2O)cc1)Nc1ccc(CCc2ccc(NC(=O)CCc3ccc(O[C@@H]4O[C@H](CO)[C@H](O)[C@H](O)[C@H]4O)cc3)cc2S(=O)(=O)O)c(S(=O)(=O)O)c1 [Compound L2] )
-10.1

---

biological target: LecA (Pseudomonas aeruginosa, UniProt Q05097); construct: made in house; assay: Direct binding to immobilized LecA by surface plasmon resonance (SPR); settings: SPR single-cycle kinetics, 25 °C, N=3 (I1 N=1)
RECORDED ENDPOINT: kon

Reported kon, compound O=C(/C=C/c1ccc(O[C@@H]2O[C@H](CO)[C@H](O)[C@H](O)[C@H]2O)cc1)Nc1ccc(OCCCCOc2ccc(NC(=O)/C=C/c3ccc(O[C@@H]4O[C@H](CO)[C@H](O)[C@H](O)[C@H]4O)cc3)cc2)cc1 : ____
1.75 ± 0.3 x10^3/Ms

Looking for the measured kon of O=C(/C=C/c1ccc(O[C@@H]2O[C@H](CO)[C@H](O)[C@H](O)[C@H]2O)cc1)Nc1ccc(OCCCOc2ccc(NC(=O)/C=C/c3ccc(O[C@@H]4O[C@H](CO)[C@H](O)[C@H](O)[C@H]4O)cc3)cn2)nc1 , can you help?
68200 M⁻¹ s⁻¹

Look up kon for this compound: O=C(CCc1ccc(O[C@@H]2O[C@H](CO)[C@H](O)[C@H](O)[C@H]2O)cc1)Nc1ccc(OCCCOc2ccc(NC(=O)CCc3ccc(O[C@@H]4O[C@H](CO)[C@H](O)[C@H](O)[C@H]4O)cc3)cc2)cc1 [Compound E2]
187 ± 13 x10^3/Ms

Which measured kon value corresponds to O=C(/C=C/c1ccc(O[C@@H]2O[C@H](CO)[C@H](O)[C@H](O)[C@H]2O)cc1)Nc1ccc(OCOc2ccc(NC(=O)/C=C/c3ccc(O[C@@H]4O[C@H](CO)[C@H](O)[C@H](O)[C@H]4O)cc3)cc2)cc1 ?
110 ± 52 x10^3/Ms
